Entries and their pEC50 values follow.
# Subject Of Test: T1, Cynomolgus Monkey CD3 epsilon protein (Cynomolgus monkey, UniProt Q95LI5 22-117)
# T1 construct: Bought protein; also called Cyno-Monkey CD3epsilon
# T1 sequence (looked up): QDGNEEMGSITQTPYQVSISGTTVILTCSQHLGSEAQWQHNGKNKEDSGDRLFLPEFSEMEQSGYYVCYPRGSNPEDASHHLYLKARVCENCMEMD
# Protocol Notes: ELISA, antigen coated on plate
In textbook form, pEC50 equals minus log to base ten of the concentration in mol/L.

pEC50 in this record for WBP3311_2.400.5 (antibody, V domains shown, Mouse monoclonal antibody from hybridoma; also called W3311-2.400.5) VH: QVQLQQSGPELVNPGASVKISCKASGYSFTNYYLHWVKQRPGQGLEWIGWIFPESDNTKYNEKLKGKATLTADTSSDTAYMHLSSLTFEDSAVYFCARDSVGNYFFDFWGQGTTLTVSS VL: DIVMSQSPSSLAVSAGEKVTMRCKSSQSLVNNRTRKNYLAWYQQKPGQPPKLLIYWASTRESGVPDRFTGSGSGTDFTLTISSVQAEDLAVYYCAQSFILRTFGGGTKLEIK : 10.62

---
pEC50 in this record for WBP3311_2.615.8 (antibody, V domains shown, Mouse monoclonal antibody from hybridoma; also called W3311-2.615.8) VH: QVQLQQSGPELVKPGTSMKISCKASGYSFTDFYTHWVRQRPGQGLEWIGWIFPGSDNIKYNEKFKGKATLTADTSSSTAYMQLSSLTSEDSAVYFCARDSVSVYYFDYWGQGTTLTVSS VL: DIVMSQSPSSLAVTAGEKVTMSCKSSQSLLNIRTRKNYLAWYQQKPGQSPKLLIYWASTRDSGVPDRFTGSGSGTDFTLTISSVQAEDLAVYYCTQSFILRTFGGGTKLEIK : 10.60

pEC50 in this record for WBP3311_2.844.8 (antibody, V domains shown, Mouse monoclonal antibody from hybridoma; also called W3311-2.844.8; clone 2.844.8) VH: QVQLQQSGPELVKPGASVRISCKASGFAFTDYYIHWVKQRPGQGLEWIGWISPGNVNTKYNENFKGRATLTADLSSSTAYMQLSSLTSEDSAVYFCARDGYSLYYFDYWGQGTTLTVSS VL: DIVMSQSPSSLTVSAGEKVTMSCKSSQSLLNSRTRKNYLAWYQQKPGQSPKLLIYWASTRESGVPDRFTGSGSGTAFTLTISGVQAEDLAVYFCTQSHTLRTFGGGTKLEIK : 11.05
